Target: PGI2 receptor (Homo sapiens)
Construct: host or cells: HEL 92.1.7 human erythroleukemia cells (whole cells)
Test: PGI2 receptor binding/cAMP in HEL cells (in vitro activity grade)
Details: compounds of purity about 40 to 90%
Protocol: [Measurement of the [^3H]-Iloprost Binding to HEL Cells] […] [^3H]-radio activity in the filter was measured by a liquid scintillation counter (Beckman, USA). […] Then, another 10 μl containing 100 nM iloprost in CAB or buffer alone was added and further incubated at 37° C. for 30 min. cAMP content in the well was measured by, a cAMP ELISA kit (Applied Biosystems, USA). […]
QUANTITY MEASURED: In vitro activity grade

Answered examples (5):
> print(dat)
                                   molecule           measured
1  O=C(NC(Cc1ccccc1)C(=O)O)c1ccc(-c2ccc(OCc3cccc(F)c3)cc2)cc1 (centres unmarked)       A (A≦0.1 μM)
2  CC(Oc1ccc(-c2ccc(C(=O)NC(Cc3ccccc3)C(=O)O)cc2)cc1)c1ccccc1 (centres unmarked)  B (0.1 μM<B≦1 μM)
3  COc1cc(COc2ccc(-c3ccc(C(=O)NC(Cc4ccccc4)C(=O)O)cc3)cc2)cc(OC)c1 (centres unmarked)       A (A≦0.1 μM)
4  O=C(NC(Cc1ccccc1)C(=O)O)c1ccc(-c2ccc(OCc3cccc(OC(F)(F)F)c3)cc2)cc1 (centres unmarked)         C (1 μM<C)
5  O=C(NC(Cc1ccccc1)C(=O)O)c1ccc(-c2ccc(OCc3ccc(Cl)cc3Cl)cc2)cc1 (centres unmarked)         C (1 μM<C)

QUERY: Fill in In vitro activity grade for record Nc1cccc(COc2ccc(-c3ccc(C(=O)NC(Cc4ccccc4)C(=O)O)cc3)cc2)c1 (centres unmarked)
RESULT: A (A≦0.1 μM)

QUERY: State its In vitro activity grade: O=C(NC(Cc1ccccc1)C(=O)O)c1ccc(-c2ccc(OCc3cccc(Cl)c3)cc2)cc1 (centres unmarked)
RESULT: A (A≦0.1 μM)

QUERY: Provide only the value of recorded In vitro activity grade for Cc1cccc(COc2ccc(-c3ccc(C(=O)NC(Cc4ccccc4)C(=O)O)cc3)cc2)c1 (centres unmarked)
RESULT: A (A≦0.1 μM)

QUERY: Answer with the recorded In vitro activity grade of O=C(NC(Cc1ccccc1)C(=O)O)c1cc(-c2ccc(OCc3ccccc3)cc2)[nH]n1 (centres unmarked) only.
RESULT: A (A≦0.1 μM)

QUERY: Recall and state the measured In vitro activity grade for O=C(NC(Cc1ccccc1)C(=O)O)c1ccc(-c2ccc(OCCN3CCCCC3)cc2)cc1 (centres unmarked) .
RESULT: C (1 μM<C)

QUERY: Using known records, supply In vitro activity grade for Cc1ccc(C)c(COc2ccc(-c3ccc(C(=O)NC(Cc4ccccc4)C(=O)O)cc3)cc2)c1 (centres unmarked)
RESULT: B (0.1 μM<B≦1 μM)

QUERY: Input O=C(NC(Cc1ccccc1)C(=O)O)c1ccc(-c2ccc(OCc3cccc([N+](=O)[O-])c3)cc2)cc1 (centres unmarked) , output reported In vitro activity grade.
RESULT: A (A≦0.1 μM)

###

target: PGI2 receptor (Homo sapiens, UniProt P43119); construct: host or cells: HEL 92.1.7 human erythroleukemia cells (whole cells); experiment: PGI2 receptor binding/cAMP in HEL cells (in vitro activity grade); conditions: compounds of purity about 40 to 90%
Sequence (P43119 whole entry): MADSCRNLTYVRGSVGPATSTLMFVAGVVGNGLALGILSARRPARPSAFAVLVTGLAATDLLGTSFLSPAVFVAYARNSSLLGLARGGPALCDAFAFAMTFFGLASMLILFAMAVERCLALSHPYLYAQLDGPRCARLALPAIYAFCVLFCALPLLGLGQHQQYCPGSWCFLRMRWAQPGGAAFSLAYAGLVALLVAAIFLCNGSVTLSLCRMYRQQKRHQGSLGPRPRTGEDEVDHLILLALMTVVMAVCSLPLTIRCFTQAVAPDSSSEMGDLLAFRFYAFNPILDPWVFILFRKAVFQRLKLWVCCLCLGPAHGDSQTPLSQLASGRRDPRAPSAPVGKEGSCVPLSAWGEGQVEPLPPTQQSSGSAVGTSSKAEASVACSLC
QUANTITY MEASURED: In vitro activity grade

> print(dat)
                                   molecule           measured
1  O=C(NC(Cc1ccccc1)C(=O)O)c1ccc(-c2ccc(OCc3ccc([N+](=O)[O-])cc3)cc2)cc1 (centres unmarked)  B (0.1 μM<B≦1 μM)
2  Cc1ccccc1COc1ccc(-c2ccc(C(=O)NC(Cc3ccccc3)C(=O)O)cc2)cc1 (centres unmarked)       A (A≦0.1 μM)
3  O=C(NC(Cc1ccccc1)C(=O)O)c1ccc(-c2ccc(OCc3ccccc3)cc2)s1 (centres unmarked)       A (A≦0.1 μM)
4  COc1ccccc1COc1ccc(-c2ccc(C(=O)NC(Cc3ccccc3)C(=O)O)cc2)cc1 (centres unmarked)  B (0.1 μM<B≦1 μM)
